The measurements presented in this section are drawn from patent US20210380606A1.

Molecular target: human A2B receptors (Homo sapiens, UniProt P29275)
Construct: expressed in transfected cells; host or cells: HEK293
Sequence (P29275 whole entry): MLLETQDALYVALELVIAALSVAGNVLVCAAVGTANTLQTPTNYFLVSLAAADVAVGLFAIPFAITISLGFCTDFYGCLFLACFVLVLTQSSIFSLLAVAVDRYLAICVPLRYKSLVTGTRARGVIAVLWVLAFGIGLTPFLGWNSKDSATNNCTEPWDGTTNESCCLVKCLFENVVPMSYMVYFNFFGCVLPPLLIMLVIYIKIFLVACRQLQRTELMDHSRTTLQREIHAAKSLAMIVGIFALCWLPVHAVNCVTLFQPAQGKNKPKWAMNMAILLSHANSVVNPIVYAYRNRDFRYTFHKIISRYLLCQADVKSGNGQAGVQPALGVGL
Test: Functional human A2B receptor activity, recombinant HEK293 cells, cAMP (HTRF)
Format: cell-based
Conditions: read-out: A2B (Category)
pIC50: −log10 of the molar value.
ATTRIBUTE MEASURED: pIC50

1) O=C(c1cc2c(cn1)c(-c1cnc3c(F)cccn13)nn2CC(F)(F)F)N1[C@@H]2CC[C@H]1C[C@@H](O)C2 | > 7.00
2) N#Cc1ccc2ncc(-c3nn(CC(F)(F)F)c4cc(C(=O)N5CCCOCC5)ncc34)n2c1 | > 6.00
3) O=C(c1cc2c(cn1)c(-c1cnc3c(F)cc(F)cn13)nn2CC(F)(F)F)N1CCOCC(F)(F)C1 | > 6.00
4) O=C(c1cc2c(cn1)c(-c1cnn3ccncc13)nn2CC(F)(F)F)N1CCCCCC1 | > 6.00
5) O=C(c1cc2c(cn1)c(-c1coc3ccccc13)nn2CC(F)(F)F)N1CC2CCC(C2)C1 | > 7.00
6) CC1(O)CC2CC1CN2C(=O)c1cc2c(cn1)c(-c1coc3ccccc13)nn2CC(F)(F)F (stereo not shown) | > 6.00
7) O=C(c1cc2c(cn1)c(-c1coc3ccccc13)nn2CC(F)(F)F)N1CCCC(O)C1 (stereo not shown) | > 7.00

---

Target: human A2B receptors (Homo sapiens, UniProt P29275)
Construct: expressed in transfected cells; host or cells: HEK293
Test: Functional human A2B receptor activity, recombinant HEK293 cells, cAMP (HTRF)
Assay type: cell-based
Settings: read-out: A2B (Category)
Procedure: The functional activities of human A2A and A2B receptors were determined by quantification of cAMP, being the second messenger for adenosine receptors. After a 15 min incubation, HTRF reagents (cAMP dynamic 2, Cis Bio) were added and the cellular cAMP levels were determined using the ENVISION (Perkin Elmer) plate reader.
Reported IC50 by item:
ATTRIBUTE MEASURED: IC50

1. O=C(c1cc2c(cn1)c(-c1cnc3c(F)cc(F)cn13)nn2CC(F)(F)F)N1CC2COC(C2)C1 (stereo not drawn) [Compound 199] | < 1000 nM
2. Cc1ccc2occ(-c3nn(CC(F)(F)F)c4cc(C(=O)N5CCCOCC5)ncc34)c2c1 [Compound 125] | < 1000 nM
3. CCC1(O)C2CCC1CN(C(=O)c1cc3c(cn1)c(-c1coc4ccccc14)nn3CC(F)(F)F)C2 (stereo not drawn) [Compound 210] | < 1000 nM
4. O=C(c1cc2c(cn1)c(-c1coc3ccc(F)cc13)nn2CC(F)(F)F)N1CCC(O)CC1 [Compound 115] | < 100 nM
5. [2H]C1([2H])COCCN(C(=O)c2cc3c(cn2)c(-c2c[nH]c4ccccc24)nn3CC(F)(F)F)C1 [Example 242] | < 1000 nM
6. O=C(c1cc2c(cn1)c(-c1cnc3c(F)cc(F)cn13)nn2CC(F)(F)F)N1CC2CC1CO2 (stereo not drawn) [Compound 135] | < 1000 nM

---

Target: human A2B receptors (Homo sapiens)
Construct: expressed in transfected cells; host or cells: HEK293
Test: Functional human A2B receptor activity, recombinant HEK293 cells, cAMP (HTRF)
Type: cell-based
Settings: read-out: A2B (Category)
pIC50: −log10 of the molar value.
Reported pIC50 by item:
ATTRIBUTE MEASURED: pIC50

1) O=C(c1cc2c(cn1)c(-c1coc3ccccc13)nn2CC(F)F)N1C2CCC1CC(O)C2 (stereo not shown) | > 6.00
2) CS(=O)(=O)Cn1nc(-c2coc3ccc(F)cc23)c2cnc(C(=O)N3CCCOCC3)cc21 | > 7.00
3) CC1(O)CCN(C(=O)c2cc3c(cn2)c(-c2coc4ccccc24)nn3CC(F)(F)F)CC1 | > 7.00
4) CC1(C)CC(O)CCN1C(=O)c1cc2c(cn1)c(-c1cnc3c(F)cc(F)cn13)nn2CC(F)(F)F (stereo not shown) | > 6.00
5) Cc1ccc2ncc(-c3nn(CC(F)(F)F)c4cc(C(=O)N5CCCCCC5)ncc34)n2c1 | > 6.00
6) O=C(c1cc2c(cn1)c(-c1cnc3c(F)cc(F)cn13)nn2CC(F)(F)F)N1CCC(F)CC1 | > 6.00
7) [2H]C1([2H])COCCN(C(=O)c2cc3c(cn2)c(-c2coc4ccc(F)cc24)nn3CC(F)(F)F)C1 | > 7.00
8) O=C(c1cc2c(cn1)c(-c1cnc3ccc(F)cn13)nn2CC(F)(F)F)N1CCCOCC1 | > 6.00
9) O=C(c1cc2c(cn1)c(-c1cnn3ccccc13)nn2CC(F)(F)F)N1CCCOCC1 | > 6.00
10) CC1(O)CCN(C(=O)c2cc3c(cn2)c(-c2coc4ccccc24)nn3CS(C)(=O)=O)CC1 | > 6.00
